Record form. Attribute: melting point. Fill in for each entry.

Looking for the measured melting point of `CCOc1cc(OCc2nc(-c3ccco3)oc2C)ccc1CCl` , can you help?
145 to 146 °C

Looking for the measured melting point of COC(C)c1ccc(C(=O)O)cc1 (single isomer, unassigned; (+)) , can you help?
99 to 102 °C

Looking for the measured melting point of CNC(=O)N1N=C(c2ccc(N)cc2)c2cc(Cl)ccc2CC1C (centres undefined) , can you help?
115 to 118 °C

Looking for the measured melting point of `COc1ccnc(CCc2nc3cc(-c4ccc(S(=O)(=O)Nc5ccccc5)cc4)cnc3[nH]2)c1` , can you help?
231 to 233 °C

Looking for the measured melting point of `CCOC(=O)C(C)(C)Oc1ccc(OCCc2nc(-c3ccc(Br)cc3)oc2C)cc1` , can you help?
78 to 79 °C

Looking for the measured melting point of `CC(C)(C)Oc1ccc(C(=O)N[C@H]2CC[C@H](CCN3CCN(c4nccc5c4CCO5)CC3)CC2)cc1` , can you help?
200 °C

Looking for the measured melting point of `O=C(Nc1ccc(Nc2ccccc2)cc1)OCCc1ccc([N+](=O)[O-])cc1` , can you help?
146 to 148 °C

Looking for the measured melting point of `CN1CCN(S(=O)(=O)c2cccc(-c3cc(-c4nc(-c5ccc(C(F)(F)F)cc5)cc(C(F)(F)F)n4)ccn3)c2)CC1` , can you help?
205 °C

Looking for the measured melting point of `COc1ccc(-c2csc(NC(=O)COc3ccc(Cl)cc3Cl)n2)cc1` , can you help?
135 to 139 °C

Looking for the measured melting point of `COc1ccc(C(=O)O)c2c1oc1ccc(Cl)cc12` , can you help?
264 to 276 °C

Looking for the measured melting point of NC(=O)C1CCc2c(C(=O)c3cccs3)cccc21 (centres undefined) , can you help?
164 to 166 °C

Looking for the measured melting point of `Nc1ncnc2c1ncn2Cc1oc2ccc(F)cc2c(=O)c1-c1cccc(F)c1` , can you help?
180 to 183 °C

Looking for the measured melting point of `CCOCc1nc2c(N)nc3cc(-c4ccccc4)ccc3c2n1CC(C)(C)O` , can you help?
211 to 212 °C

Looking for the measured melting point of CCOc1cccc(C(C)CC(=O)Nc2sc3c(c2C#N)CCNC3)c1 (racemic) , can you help?
178 to 180 °C

Looking for the measured melting point of `Nc1nc(O)nc2nc(-c3ccco3)nn12` , can you help?
> 300 °C

Looking for the measured melting point of `CCC(=O)Nc1c(C#N)cnn1-c1c(Cl)cc(Cl)c(Cl)c1Cl` , can you help?
203 to 204 °C

Looking for the measured melting point of `CC(C)(CO)CCCCCCCCCC(C)(C)CO` , can you help?
52 to 54 °C

Looking for the measured melting point of `CC(C)c1nc(C(C)C)c(CCCCO)c(-c2ccc(F)cc2)c1CO` , can you help?
135 to 137 °C

Looking for the measured melting point of `CCOc1cc(OCC)nc(-c2nsc3ccc(-n4c(=O)cc(C(F)(F)F)n(C)c4=O)cc23)n1` , can you help?
197 to 200 °C
